Tested on: SH-SY5Y human neuroblastoma cells
run_description: MTT cytotoxicity assay, SH-SY5Y
Assay type: cell-based
experimental_parameters: Homo sapiens, SH-SY5Y, mean ± SD, read-out: Cytotoxic activity IC50, SH-SY5Y
pIC50: −log10 of the molar value.
assay_metric: pIC50

molecule="Cc1ccc(C(=O)NCCS(N)(=O)=O)cc1 [Compound 12, 4-Methyl-N-(2-sulfamoylethyl)benzamide]" observed_value=4.10
molecule=COc1ccc(NS(=O)(=O)CCNC(=O)c2ccc(OC)cc2)cc1 observed_value=4.40
molecule=O=C(NCCS(=O)(=O)Nc1ccccc1)c1ccc(Cl)cc1 observed_value=4.54

* * *

Test system: SH-SY5Y human neuroblastoma cells
run_description: MTT cytotoxicity assay, SH-SY5Y
Format: cell-based
experimental_parameters: Homo sapiens, SH-SY5Y, mean ± SD, read-out: Cytotoxic activity IC50, SH-SY5Y
Excerpt: The human neuroblastoma cells (SH-SY5Y), triple-negative breast cancer cells (MDA-MB-231), and human pancreatic cancer cells (Panc1) used in this study were purchased from the American Type Culture Collection (ATCC). The cells were suspended in complete Dulbecco’s modified Eagle medium (DMEM) (Life Technologies, Gibco BRL, Grand Island, NY) supplemented with 10% fetal bovine serum (FBS, Hyclone), 1% penicillin and streptomycin (100 U/mL, Invitrogen) and plated in cell culture dishes. […]
pIC50: −log10 of the molar value.
Quick rule for you: pIC50 at 4 or higher means true, lower means false.

compound="COc1ccc(C(=O)NCCS(=O)(=O)N2CCOCC2)cc1 [Compound 7]" target_or_test_system="SH-SY5Y human neuroblastoma cells" group=false
compound="COc1ccc(NS(=O)(=O)CCNC(=O)c2ccc(Cl)cc2)cc1 [Compound 14]" target_or_test_system="SH-SY5Y human neuroblastoma cells" group=true
compound="NS(=O)(=O)CCNC(=O)c1ccc(Cl)cc1 [Compound 10, 4-Chloro-N-(2-sulfamoylethyl)benzamide]" target_or_test_system="SH-SY5Y human neuroblastoma cells" group=true
compound="COc1ccc(NS(=O)(=O)CCNC(=O)c2ccc(C)cc2)cc1 [Compound 16]" target_or_test_system="SH-SY5Y human neuroblastoma cells" group=true
compound="COc1ccc(NS(=O)(=O)CCNC(=O)c2ccccc2)cc1 [Compound 13]" target_or_test_system="SH-SY5Y human neuroblastoma cells" group=true

* * *

run_description: MTT cytotoxicity assay, MCF-10a (nontumorigenic)
Format: cell-based
experimental_parameters: MCF-10a nontumorigenic mammary cells, MCF-10a nontumorigenic human mammary cell line, mean ± SD, read-out: Cytotoxic activity IC50, MCF-10a
pIC50: −log10 of the molar value.
Quick list: pIC50 per entry.
assay_metric: pIC50

molecule="COc1ccc(C(=O)NCCS(=O)(=O)N2CCOCC2)cc1 [Compound 7]" assay_metric=pIC50 observed_value=3.93
molecule="COc1ccc(NS(=O)(=O)CCNC(=O)c2ccc(C)cc2)cc1 [Compound 16]" assay_metric=pIC50 observed_value=3.88
molecule="COc1ccc(C(=O)NCCS(N)(=O)=O)cc1 [Compound 11, 4-Methoxy-N-(2-sulfamoylethyl)benzamide]" assay_metric=pIC50 observed_value=4.09
molecule="NS(=O)(=O)CCNC(=O)c1ccc(Cl)cc1 [Compound 10, 4-Chloro-N-(2-sulfamoylethyl)benzamide]" assay_metric=pIC50 observed_value=3.76
molecule="COc1ccc(C(=O)NCCS(=O)(=O)Nc2ccccc2)cc1 [Compound 3]" assay_metric=pIC50 observed_value=4.00
molecule="Cc1ccc(C(=O)NCCS(=O)(=O)Nc2ccccc2)cc1 [Compound 4]" assay_metric=pIC50 observed_value=3.88
molecule="COc1ccc(NS(=O)(=O)CCNC(=O)c2ccc(Cl)cc2)cc1 [Compound 14]" assay_metric=pIC50 observed_value=3.96
molecule="COc1ccc(NS(=O)(=O)CCNC(=O)c2ccc(OC)cc2)cc1 [Compound 15]" assay_metric=pIC50 observed_value=3.93
molecule="O=C(NCCS(=O)(=O)N1CCOCC1)c1ccc(Cl)cc1 [Compound 6]" assay_metric=pIC50 observed_value=4.15
molecule="COc1ccc(NS(=O)(=O)CCNC(=O)c2ccccc2)cc1 [Compound 13]" assay_metric=pIC50 observed_value=3.66
molecule="Cc1ccc(C(=O)NCCS(N)(=O)=O)cc1 [Compound 12, 4-Methyl-N-(2-sulfamoylethyl)benzamide]" assay_metric=pIC50 observed_value=3.97
molecule="O=C(NCCS(=O)(=O)Nc1ccccc1)c1ccccc1 [Compound 1, N-(2-(N-phenylsulfamoyl)ethyl)benzamide]" assay_metric=pIC50 observed_value=4.11
molecule="O=C(NCCS(=O)(=O)Nc1ccccc1)c1ccc(Cl)cc1 [Compound 2]" assay_metric=pIC50 observed_value=3.63
molecule="NS(=O)(=O)CCNC(=O)c1ccccc1 [Compound 9, N-(2-sulfamoylethyl)benzamide]" assay_metric=pIC50 observed_value=3.96
molecule="O=C(NCCS(=O)(=O)N1CCOCC1)c1ccccc1 [Compound 5, N-(2-(morpholinosulfonyl)ethyl)benzamide]" assay_metric=pIC50 observed_value=4.05
molecule="Cc1ccc(C(=O)NCCS(=O)(=O)N2CCOCC2)cc1 [Compound 8]" assay_metric=pIC50 observed_value=4.09
